The origin of these recorded values is patent US20260176319A1.

# tested system: human GRP receptors (Homo sapiens)
# Sequence (P30550 whole entry): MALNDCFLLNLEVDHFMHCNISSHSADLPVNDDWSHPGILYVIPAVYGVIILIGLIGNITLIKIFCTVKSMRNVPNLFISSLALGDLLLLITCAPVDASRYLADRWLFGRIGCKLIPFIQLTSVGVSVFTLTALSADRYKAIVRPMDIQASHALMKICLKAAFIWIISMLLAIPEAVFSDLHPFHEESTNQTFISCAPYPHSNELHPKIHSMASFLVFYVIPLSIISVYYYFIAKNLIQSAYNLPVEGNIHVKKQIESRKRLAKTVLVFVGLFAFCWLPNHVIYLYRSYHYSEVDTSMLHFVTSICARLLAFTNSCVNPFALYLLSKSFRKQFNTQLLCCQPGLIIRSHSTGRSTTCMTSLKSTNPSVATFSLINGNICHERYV
# method summary: IP1 GRPR activity: HTRF IP1-Gq assay in U2OS cells stably expressing human GRP receptors
# measurement parameters: 90 minutes incubation, read-out: hIP1 GRPR EC50
Starred links: 1 amine or outer side, 2 acyl side, 3 side chain; linkers in the order of their positions; H or OH if unused. Non-standard residues stand in square brackets, D forms with d. Residues, ends and D or L forms follow the SMILES beside them. *: point of attachment. Trp(7-Me) = Cc1cccc2c(C[C@H](N)C(=O)O)c[nH]c12; C20 diacid = O=C(O)CCCCCCCCCCCCCCCCCCC(=O)*; γGlu = O=C(O)[C@H](CCC(=O)[*:2])N[*:1]; Nle = CCCC[C@H](N)C(=O)O; β3hA = C[C@H](N)CC(=O)O; AEEA = NCCOCCOCC(=O)O
endpoint: EC50 (nM)
Could you give me the number in nM? Just the number is fine.

What value of measured EC50 is listed for CCCC[C@H](NC(=O)[C@H](CC(C)C)NC(=O)[C@H](Cc1c[nH]cn1)NC(=O)C[C@H](C)NC(=O)[C@@H](NC(=O)[C@H](C)NC(=O)[C@H](Cc1c[nH]c2c(C)cccc12)NC(=O)[C@H](Cc1c[nH]cn1)NC(=O)[C@H](CCC(=O)O)NC(=O)CNC(=O)COCCOCCNC(=O)COCCOCCNC(=O)CC[C@H](NC(=O)CC[C@H](NC(=O)CCCCCCCCCCCCCCCCCCC(=O)O)C(=O)O)C(=O)O)C(C)C)C(N)=O [Peptide 247] ({C20 diacid-γGlu-γGlu-AEEA-AEEA}-GEH[Trp(7-Me)]AV[β3hA]HL[Nle]-NH2) ?
1.8

* * *

# pEC50 values compiled below
# tested system: human GRP receptors (Homo sapiens)
# method summary: IP1 GRPR activity: HTRF IP1-Gq assay in U2OS cells stably expressing human GRP receptors
# measurement parameters: 90 minutes incubation, read-out: hIP1 GRPR EC50
Starred links: 1 amine or outer side, 2 acyl side, 3 side chain; linkers in the order of their positions; H or OH if unused. Non-standard residues stand in square brackets, D forms with d. Residues, ends and D or L forms follow the SMILES beside them. *: point of attachment. Trp(7-Me) = Cc1cccc2c(C[C@H](N)C(=O)O)c[nH]c12; C20 diacid = O=C(O)CCCCCCCCCCCCCCCCCCC(=O)*; C18 diacid = O=C(O)CCCCCCCCCCCCCCCCC(=O)*; γGlu = O=C(O)[C@H](CCC(=O)[*:2])N[*:1]; X2 = O=C(CC1(N[*:1])CC1)[*:2]; Nle = CCCC[C@H](N)C(=O)O; AEEA = NCCOCCOCC(=O)O; βAla = NCCC(=O)O
Recall that pEC50 is obtained by taking minus log10 of the concentration measured in molar.

INSERT INTO assay_data (molecule, endpoint, val) VALUES
  ('CCCC[C@H](NC(=O)[C@H](CC(C)C)NC(=O)[C@H](Cc1c[nH]cn1)NC(=O)CCNC(=O)[C@@H](NC(=O)[C@H](C)NC(=O)[C@H](Cc1c[nH]c2c(C)cccc12)NC(=O)[C@H](Cc1c[nH]cn1)NC(=O)[C@H](CCCNC(=N)N)NC(=O)CNC(=O)[C@H](CO)NC(=O)COCCOCCNC(=O)COCCOCCNC(=O)CC[C@H](NC(=O)CC[C@H](NC(=O)CCCCCCCCCCCCCCCCCCC(=O)O)C(=O)O)C(=O)O)C(C)C)C(N)=O [Peptide 256] ({C20 diacid-γGlu-γGlu-AEEA-AEEA}-SGRH[Trp(7-Me)]AV[βAla]HL[Nle]-NH2)', 'pEC50', 8.43),
  ('CCCC[C@H](NC(=O)[C@H](CC(C)C)NC(=O)[C@H](Cc1c[nH]cn1)NC(=O)[C@@H](C)NC(=O)[C@@H](NC(=O)[C@H](C)NC(=O)[C@H](Cc1c[nH]c2ccccc12)NC(=O)[C@H](Cc1c[nH]cn1)NC(=O)[C@H](CC(N)=O)NC(=O)[C@H](CCCNC(=N)N)NC(=O)COCCOCCNC(=O)COCCOCCNC(=O)CC[C@H](NC(=O)CCCCCCCCCCCCCCCCC(=O)O)C(=O)O)C(C)C)C(=O)O [Peptide 156] ({C18 diacid-γGlu-AEEA-AEEA}-RNHWAV[dA]HL[Nle]-OH)', 'pEC50', 6.45);

What value of measured pEC50 is listed for CCCC[C@H](NC(=O)[C@H](CC(C)C)NC(=O)[C@H](Cc1c[nH]cn1)NC(=O)CC1(NC(=O)[C@@H](NC(=O)[C@H](C)NC(=O)[C@H](Cc2c[nH]c3ccccc23)NC(=O)[C@H](Cc2c[nH]cn2)NC(=O)[C@H](CCC(N)=O)NC(=O)CNC(=O)COCCOCCNC(=O)COCCOCCNC(=O)CC[C@H](NC(=O)CC[C@H](NC(=O)CCCCCCCCCCCCCCCCCCC(=O)O)C(=O)O)C(=O)O)C(C)C)CC1)C(N)=O [Peptide 272] ({C20 diacid-γGlu-γGlu-AEEA-AEEA}-GQHWAV[X2]HL[Nle]-NH2) ?
8.22
